Recorded values, source patent US7118895B2.

System: Crude diglycosidase
protocol: Examination of substrate concentration in the conversion into isoflavone aglycons by diglycosidase using soybean materials;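 further: percent of the isoflavone family total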
Format: biochemical, Penicillium multicolor IAM7153
protocolConditions: soymilk, substrate concentration 20%, heat treatment of enzyme yes, reaction time 6 h
// reported Decomposition efficiency: ratio of each glycoside/aglycon within its isoflavone family per item
Record the value in %, omitting the unit from your answer.

COc1cc2c(=O)c(-c3ccc(O)cc3)coc2cc1O [glycitein] ... 5.7

Value of measured Decomposition efficiency: ratio of each glycoside/aglycon within its isoflavone family for the entry O=C(O)CC(=O)OC[C@H]1O[C@@H](Oc2ccc3c(=O)c(-c4ccc(O)cc4)coc3c2)[C@H](O)[C@@H](O)[C@@H]1O [malonyldaidzin, 6″-O-malonyldaidzin] : 48.1

Value of measured Decomposition efficiency: ratio of each glycoside/aglycon within its isoflavone family for the entry COc1cc2c(=O)c(-c3ccc(O)cc3)coc2cc1O[C@@H]1O[C@H](CO)[C@@H](O)[C@H](O)[C@H]1O [glycitin] : 55.5

----------
System: Crude diglycosidase
protocol: Examination of pH in the conversion into isoflavone aglycons by diglycosidase using soybean materials
Type: biochemical, Penicillium multicolor IAM7153
protocolConditions: pH5.1; heat treatment of enzyme: no; reaction time 6 h
recordedMetric: Decomposition efficiency of daidzin family in concentrated soybean protein (%)
Record the value in %, omitting the unit from your answer.

Value of measured Decomposition efficiency of daidzin family in concentrated soybean protein for the entry O=c1c(-c2ccc(O)cc2)coc2cc(O)ccc12 : 68.8

Value of measured Decomposition efficiency of daidzin family in concentrated soybean protein for the entry CC(=O)OC[C@H]1O[C@@H](Oc2ccc3c(=O)c(-c4ccc(O)cc4)coc3c2)[C@H](O)[C@@H](O)[C@@H]1O : 31.2

----------
Test system: Crude diglycosidase
protocol: Examination of pH in the conversion into isoflavone aglycons by diglycosidase using soybean materials
Assay type: biochemical, Penicillium multicolor IAM7153
protocolConditions: pH2.3; heat treatment of enzyme: no; reaction time 0 h
recordedMetric: Decomposition efficiency of daidzin family in soymilk (%)
Record the value in %, omitting the unit from your answer.

Study these solved cases before continuing.
O=c1c(-c2ccc(O)cc2)coc2cc(O[C@@H]3O[C@H](CO)[C@@H](O)[C@H](O)[C@H]3O)ccc12 ... 34.4
O=C(O)CC(=O)OC[C@H]1O[C@@H](Oc2ccc3c(=O)c(-c4ccc(O)cc4)coc3c2)[C@H](O)[C@@H](O)[C@@H]1O ... 55.1

Consider the record given below.
Noted Decomposition efficiency of daidzin family in soymilk for O=c1c(-c2ccc(O)cc2)coc2cc(O)ccc12 , tested on Crude diglycosidase: 10.5

----------
Tested on: Crude diglycosidase
protocol: Examination of pH in the conversion into isoflavone aglycons by diglycosidase using soybean materials
Format: biochemical, Penicillium multicolor IAM7153
protocolConditions: pH8.6; heat treatment of enzyme: no; reaction time 6 h
// reported Decomposition efficiency of glycitin family in concentrated soybean protein per item

COc1cc2c(=O)c(-c3ccc(O)cc3)coc2cc1O [glycitein] ... 30.9%
COc1cc2c(=O)c(-c3ccc(O)cc3)coc2cc1O[C@@H]1O[C@H](COC(=O)CC(=O)O)[C@@H](O)[C@H](O)[C@H]1O [malonylglycitin, 6″-O-malonylglycitin] ... 0.4%
COc1cc2c(=O)c(-c3ccc(O)cc3)coc2cc1O[C@@H]1O[C@H](COC(C)=O)[C@@H](O)[C@H](O)[C@H]1O [acetylglycitin, 6″-O-acetylglycitin] ... 32.0%

Value of measured Decomposition efficiency of glycitin family in concentrated soybean protein for the entry COc1cc2c(=O)c(-c3ccc(O)cc3)coc2cc1O[C@@H]1O[C@H](CO)[C@@H](O)[C@H](O)[C@H]1O [glycitin] : 36.7%
